Just for reference, patent US20220163539A1 is where these values come from.

target-or-test-system: NLRP3 in NLRP3 over-expressing HEK293 cell lysate supernatants (Homo sapiens)
Sequence (Q96P20 whole entry): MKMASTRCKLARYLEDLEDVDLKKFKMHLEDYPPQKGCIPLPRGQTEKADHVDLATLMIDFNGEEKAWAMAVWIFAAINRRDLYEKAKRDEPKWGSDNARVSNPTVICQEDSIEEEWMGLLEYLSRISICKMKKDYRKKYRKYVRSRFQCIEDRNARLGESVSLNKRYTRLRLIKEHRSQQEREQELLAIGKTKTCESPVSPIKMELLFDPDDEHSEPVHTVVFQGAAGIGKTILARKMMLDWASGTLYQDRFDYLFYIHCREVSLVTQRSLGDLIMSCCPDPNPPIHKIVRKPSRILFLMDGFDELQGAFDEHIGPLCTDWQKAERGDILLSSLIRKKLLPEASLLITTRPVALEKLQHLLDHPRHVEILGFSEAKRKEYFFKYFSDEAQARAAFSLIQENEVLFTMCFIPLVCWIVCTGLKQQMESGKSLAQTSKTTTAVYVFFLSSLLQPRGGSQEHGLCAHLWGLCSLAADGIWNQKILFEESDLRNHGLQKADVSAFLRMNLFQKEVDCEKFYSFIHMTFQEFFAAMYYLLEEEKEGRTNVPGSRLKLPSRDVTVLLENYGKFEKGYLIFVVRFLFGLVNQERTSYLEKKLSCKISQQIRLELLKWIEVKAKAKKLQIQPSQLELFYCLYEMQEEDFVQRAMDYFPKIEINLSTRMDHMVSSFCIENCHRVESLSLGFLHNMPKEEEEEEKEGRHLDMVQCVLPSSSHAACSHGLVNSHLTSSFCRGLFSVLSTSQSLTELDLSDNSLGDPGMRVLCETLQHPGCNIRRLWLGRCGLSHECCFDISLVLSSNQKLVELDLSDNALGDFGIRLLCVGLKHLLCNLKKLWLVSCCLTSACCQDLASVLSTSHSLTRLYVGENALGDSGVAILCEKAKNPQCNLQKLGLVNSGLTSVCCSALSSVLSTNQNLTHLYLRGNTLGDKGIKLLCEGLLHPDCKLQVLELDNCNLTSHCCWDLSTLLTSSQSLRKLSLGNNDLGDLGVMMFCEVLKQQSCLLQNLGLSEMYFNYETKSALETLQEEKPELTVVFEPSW
experiment-description: Radioligand binding assay with [3H]-MCC7840, gel filtration
experimental-setup: 200 nM [3H]-MCC7840, 700 μg protein, 4 hrs at RT; minimum of curve fit constrained; read-out: estimated IC50, competition with [3H]-MCC7840
measured-parameter: pIC50
Note on units: pIC50 is unitless, being -log10 of a concentration expressed in mol/L.

Input line: Tell me the measured pIC50 of Nc1ncnc2c1ncn2[C@@H]1O[C@H](COP(=O)(O)OP(=O)(O)OP(=O)(O)O)[C@@H](O)[C@H]1O , please.
Output line: 1.12
